system-under-test: T1, human TREM2 (human, UniProt Q9NZC2 19-230)
T1 construct: on THP-1 WT cells and M2a-like macrophages (endogenous) and on CHO or HEK293T cells overexpressing human TREM2 with DAP12; also called hTREM2
T1 sequence: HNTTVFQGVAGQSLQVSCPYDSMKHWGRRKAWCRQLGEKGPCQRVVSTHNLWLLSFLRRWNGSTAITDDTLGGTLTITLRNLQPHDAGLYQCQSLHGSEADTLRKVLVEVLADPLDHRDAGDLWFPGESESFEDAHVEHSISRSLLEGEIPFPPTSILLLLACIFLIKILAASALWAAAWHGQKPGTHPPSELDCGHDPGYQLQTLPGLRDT
assay-notes: flow cytometry, THP-1 WT cells, 10 ug/ml
Fold over isotype control THP1 WT: recorded values
The answer should read as a number with its unit following.

In the examples that follow, each entry is paired with its recorded Fold over isotype control THP1 WT.
{"binder": "EOS006175 (antibody, V domains shown) VH: QVQLQESGPGLVKPSGTLSLTCAVSGGSISSSNWWSWVRQPPGKGLEWIGEIYHSGSTNYNPSLKSRVTISVDKSKNQFSLKLSSVTAADTAVYYCARDTKYWGGMDVWGQGTTVTVSS VL: DIQMTQSPSSLSASVGDRVTITCQASQDISNYLNWYQQKPGKAPKLLIYDASNLATGVPSRFSGSGSGTDFTFTISSLQPEDIATYYCQQYVEAPTFGGGTKVEIK", "Fold over isotype control THP1 WT": "5.5 fold"}
{"binder": "EOS006163 (antibody, V domains shown) VH: QVQLVQSGAEVKKPGSSVKVSCKASGGTFAQYAISWVRQAPGQGLEWMGVIIPDSGTANYAQKFQGRVTITADESTSTAYMELSSLRSEDTAVYYCARTQENTIFDIWGQGTMVTVSS VL: EIVLTQSPATLSLSPGERATLSCRASQSVSSYLAWFQQKPGQAPRLLIYDASNRATGIPARFSGSGSGTDFTLTISSLEPEDFAVYYCQQDYEWPITFGGGTKVEIK", "Fold over isotype control THP1 WT": "2.7 fold"}

Query Fold over isotype control THP1 WT for EOS006173 (antibody, V domains shown, also called EOS061730) VH: EVQLVESGGGLVQPGRSLRLSCTASGFTFGDYAMSWFRQAPGKGLEWVGFIGSKAYGGTTEYTASVKGRFTISRDGSKSIAYLQMNSLKTEDTAVYYCARGKRRDYGYWHPAFDVWGQGTMVTVSS VL: DIQMTQSPSSLSASVGDRVTITCQASQDITNYLNWYQQKPGKAPKLLIYDASNLETGVPSRFSGSGSGTDFTFTISSLQPEDIATYYCQEYDQYLTFGGGTKVEIK 3.3 fold

Query Fold over isotype control THP1 WT for EOS006162 (antibody, V domains shown) VH: QVQLVQSGAEVKKPGSSVKVSCKASGGTFSSYAISWVRQAPGQGLEWMGGIIPISGTANYAQKFQGRVTITADESTSTAYMELSSLRSEDTAVYYCARTQEYTLFDSWGQGTMVTVSS VL: EIVLTQSPATLSLSPGERATLSCRASQSVSSYLAWFQQKPGQAPRLLIYDASNRATGIPARFSGSGSGTDFTLTISSLEPEDFAVYYCQQDYHWPITFGGGTKVEIK 9.9 fold

Query Fold over isotype control THP1 WT for EOS006181 (antibody, V domains shown) VH: EVQLVESGGGLVQPGRSLRLSCTASGFTFDDHAMSWFRQAPGKGLEWVGFIGSKAYGGTTEYTASVKGRFTISRDGSKSIAYLQMNSLKTEDTAVYYCARGKRYSYTYWTPAFDVWGQGTMVTVSS VL: DIQMTQSPSSLSASVGDRVTITCQASQDITNYLNWYQQKPGKAPKLLIYDASNLETGVPSRFSGSGSGTDFTFTISSLQPEDIATYYCQQYDSYLTFGGGTKVEIK 3.5 fold

Query Fold over isotype control THP1 WT for EOS006177 (antibody, V domains shown) VH: QVQLQESGPGLVKPSGTLSLTCAVSGGSISDSAWWSWVRQPPGKGLEWIGEIYHDADTNYNPSLKSRVTISVDKSKNQFSLKLSSVTAADTAVYYCARDTKYWGGMDVWGQGTTVTVSS VL: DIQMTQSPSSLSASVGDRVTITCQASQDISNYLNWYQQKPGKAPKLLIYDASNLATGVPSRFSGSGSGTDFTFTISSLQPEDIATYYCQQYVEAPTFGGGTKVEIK 3.3 fold

Query Fold over isotype control THP1 WT for EOS006166 (antibody, V domains shown) VH: EVQLVESGGGLVQPGRSLRLSCTASGFTFGDYAMSWFRQAPGKGLEWVGFIGSKAYGGTTEYTASVKGRFTISRDGSKSIAYLQMNSLKTEDTAVYYCARGKRYSYGYWHPAFDVWGQGTMVTVSS VL: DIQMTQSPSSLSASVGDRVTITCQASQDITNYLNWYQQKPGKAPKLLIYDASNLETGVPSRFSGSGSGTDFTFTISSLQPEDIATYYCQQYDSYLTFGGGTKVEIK 7.3 fold

Query Fold over isotype control THP1 WT for EOS006174 (antibody, V domains shown) VH: EVQLVESGGGLVQPGRSLRLSCTASGFTFGEYTMSWFRQAPGKGLEWVGFIGSKAYAGTTEYTASVKGRFTISRDGSKSIAYLQMNSLKTEDTAVYYCARGKRYSYGGWVPAFDVWGQGTMVTVSS VL: DIQMTQSPSSLSASVGDRVTITCQASQDITNYLNWYQQKPGKAPKLLIYDASNLETGVPSRFSGSGSGTDFTFTISSLQPEDIATYYCQEYDSYLAFGGGTKVEIK 4 fold

Query Fold over isotype control THP1 WT for EOS006172 (antibody, V domains shown) VH: QVQLVQSGAEVKKPGSSVKVSCKASGGTFSSYAISWVRQAPGQGLEWMGGIIPISGTANYAQKFQGRVTITADESTSTAYMELSSLRSEDTAVYYCARTQEYTLFDIWGQGTMVTVSS VL: EIVLTQSPATLSLSPGERATLSCRASQSVSSYLAWFQQKPGQAPRLLIYDASNRATGIPARFSGSGSGTDFTLTISSLEPEDFAVYYCQQDFHWPITFGGGTKVEIK 8.7 fold

Query Fold over isotype control THP1 WT for EOS006170 (antibody, V domains shown) VH: QVQLQESGPGLVKPSGTLSLTCAVSGGSISSSNWWSWVRQPPGKGLEWIGEIYHSGSTNYNPSLKSRVTISVDKSKNQFSLKLSSVTAADTAVYYCARDTKYQAGMDVWGQGTTVTVSS VL: DIQMTQSPSSLSASVGDRVTITCQASQDISNYLNWYQQKPGKAPKLLIYDASNLATGVPSRFSGSGSGTDFTFTISSLQPEDIATYYCQQYVVFPTFGGGTKVEIK 2.3 fold

The values you see were collected from patent US20250282868A1.
